Data provenance: the kinase profiling compilation of Christmann-Franck et al. (2016)

target: MAP3K1 (human) (UniProt Q13233); assay: radiometric filter-binding kinase assay; conditions: compound 10.0 µM
Sequence (Q13233 whole entry, looked up): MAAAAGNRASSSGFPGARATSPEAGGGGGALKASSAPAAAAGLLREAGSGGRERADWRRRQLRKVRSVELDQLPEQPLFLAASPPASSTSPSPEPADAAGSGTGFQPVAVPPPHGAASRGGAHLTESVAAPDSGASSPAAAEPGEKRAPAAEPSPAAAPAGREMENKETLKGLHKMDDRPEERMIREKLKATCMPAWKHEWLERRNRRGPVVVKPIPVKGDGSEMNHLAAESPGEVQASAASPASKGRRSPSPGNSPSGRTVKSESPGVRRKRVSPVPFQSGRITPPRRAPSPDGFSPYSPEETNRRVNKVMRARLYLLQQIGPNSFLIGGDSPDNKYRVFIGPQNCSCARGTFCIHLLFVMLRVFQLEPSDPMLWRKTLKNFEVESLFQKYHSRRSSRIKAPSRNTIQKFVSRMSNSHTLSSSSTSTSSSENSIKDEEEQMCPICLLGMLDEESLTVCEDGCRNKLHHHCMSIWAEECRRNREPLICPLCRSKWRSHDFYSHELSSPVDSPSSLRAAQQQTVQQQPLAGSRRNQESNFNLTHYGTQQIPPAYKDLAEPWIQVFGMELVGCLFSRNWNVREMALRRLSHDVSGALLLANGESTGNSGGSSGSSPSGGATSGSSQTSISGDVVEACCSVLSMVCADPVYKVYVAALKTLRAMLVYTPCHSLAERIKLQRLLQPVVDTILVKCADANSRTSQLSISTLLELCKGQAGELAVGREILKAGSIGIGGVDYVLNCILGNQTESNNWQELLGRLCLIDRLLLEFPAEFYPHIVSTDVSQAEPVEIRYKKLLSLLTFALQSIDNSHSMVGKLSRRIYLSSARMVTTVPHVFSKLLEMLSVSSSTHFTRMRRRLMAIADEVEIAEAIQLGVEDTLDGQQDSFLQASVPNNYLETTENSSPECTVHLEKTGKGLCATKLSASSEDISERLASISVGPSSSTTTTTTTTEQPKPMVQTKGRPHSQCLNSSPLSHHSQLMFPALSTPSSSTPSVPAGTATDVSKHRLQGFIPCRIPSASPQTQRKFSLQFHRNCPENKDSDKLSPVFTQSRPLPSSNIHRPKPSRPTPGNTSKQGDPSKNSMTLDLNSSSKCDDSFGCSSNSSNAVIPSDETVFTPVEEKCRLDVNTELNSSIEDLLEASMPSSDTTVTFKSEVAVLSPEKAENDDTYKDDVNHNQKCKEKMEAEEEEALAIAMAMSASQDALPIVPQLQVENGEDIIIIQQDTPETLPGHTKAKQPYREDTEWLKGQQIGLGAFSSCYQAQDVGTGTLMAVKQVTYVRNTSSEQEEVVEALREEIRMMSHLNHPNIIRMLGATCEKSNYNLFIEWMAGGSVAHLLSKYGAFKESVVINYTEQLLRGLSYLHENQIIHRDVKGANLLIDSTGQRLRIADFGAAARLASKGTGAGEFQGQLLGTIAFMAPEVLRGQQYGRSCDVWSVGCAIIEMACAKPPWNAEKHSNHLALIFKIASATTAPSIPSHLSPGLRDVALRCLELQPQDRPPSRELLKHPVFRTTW
This listing pairs compounds with measured residual activity.
Give just the number in %; leave the unit off.

NC(=O)c1cc2c(-c3cccc(-c4ccccc4)c3)cnc(N)c2s1 : 30
COc1cc2ncn(-c3cc(OCc4ccccc4S(C)(=O)=O)c(C#N)s3)c2cc1OC : 54

As a next step, examine the compound that follows.
Query: residual activity; subject: Cc1ccc(=O)n(-c2ccccc2)c1 103

---

biological target: CDK9 CCNT1 (human) (UniProt P50750+O60563); assay: radiometric filter-binding kinase assay; conditions: compound 1.0 µM
Sequence (O60563 whole entry, looked up): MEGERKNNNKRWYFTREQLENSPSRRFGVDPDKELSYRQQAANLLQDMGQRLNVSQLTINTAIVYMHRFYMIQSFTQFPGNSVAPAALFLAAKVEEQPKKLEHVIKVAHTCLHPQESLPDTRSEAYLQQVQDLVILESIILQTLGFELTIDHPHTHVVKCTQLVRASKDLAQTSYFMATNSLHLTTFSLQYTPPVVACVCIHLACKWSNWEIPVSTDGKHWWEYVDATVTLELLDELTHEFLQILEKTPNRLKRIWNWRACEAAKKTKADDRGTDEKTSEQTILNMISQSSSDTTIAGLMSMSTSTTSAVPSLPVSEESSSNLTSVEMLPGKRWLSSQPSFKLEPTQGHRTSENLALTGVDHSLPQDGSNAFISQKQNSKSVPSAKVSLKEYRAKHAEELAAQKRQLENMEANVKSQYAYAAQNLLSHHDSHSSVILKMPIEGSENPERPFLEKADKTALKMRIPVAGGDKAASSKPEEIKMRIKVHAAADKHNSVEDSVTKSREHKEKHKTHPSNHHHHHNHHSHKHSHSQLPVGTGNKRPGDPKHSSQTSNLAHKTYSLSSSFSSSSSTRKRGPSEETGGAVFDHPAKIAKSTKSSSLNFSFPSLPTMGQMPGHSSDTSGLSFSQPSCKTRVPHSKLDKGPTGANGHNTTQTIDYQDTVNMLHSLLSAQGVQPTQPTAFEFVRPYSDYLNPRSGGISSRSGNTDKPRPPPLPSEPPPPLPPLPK
Sequence (P50750 whole entry, looked up): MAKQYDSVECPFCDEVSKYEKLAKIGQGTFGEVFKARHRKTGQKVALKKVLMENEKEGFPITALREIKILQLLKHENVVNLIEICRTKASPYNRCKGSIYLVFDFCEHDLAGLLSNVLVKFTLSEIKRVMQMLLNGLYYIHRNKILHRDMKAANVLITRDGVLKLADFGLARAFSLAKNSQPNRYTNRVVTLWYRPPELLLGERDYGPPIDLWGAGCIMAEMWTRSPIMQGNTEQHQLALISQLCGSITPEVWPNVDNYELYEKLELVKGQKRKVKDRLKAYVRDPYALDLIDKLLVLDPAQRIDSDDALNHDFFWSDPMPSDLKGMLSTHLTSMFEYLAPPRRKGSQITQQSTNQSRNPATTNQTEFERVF
measuredParameter: residual activity (%)
Give just the number in %; leave the unit off.

Please review the entries below; each comes with its answer.
CNc1nc(-c2ccc3c(N)n[nH]c3c2)cc(N2C[C@@H](C(=O)NC3CCCCC3)CC[C@H]2C)n1 : 92
Cc1ccc(-c2ccc3c(ccc4sc5c(c43)NC[C@@H](C)NC5=O)n2)cn1 : 96
CN(C)C/C=C/C(=O)Nc1cccc(C(=O)Nc2ccc(Nc3nccc(-c4cccnc4)n3)cc2)c1 : 42
CNC(=O)C1[C@H]2O[C@@](C)([C@@H]1N)n1c3ccccc3c3c4c(c5c6ccccc6n2c5c31)C(=O)NC4 (stereo partly drawn) : 15
COc1ccc(N(C(=O)Nc2c(C)cccc2C)c2cc(Nc3ccc(N4CCN(C)CC4)cc3)ncn2)c(OC)c1 : 95

Query: residual activity; subject: CC1=C(CO)C(=O)O[C@@H]([C@@H](C)[C@H]2CC[C@H]3[C@@H]4C[C@H]5O[C@]56[C@@H](O)C=CC(=O)[C@]6(C)C4CC[C@]23C)C1 (stereo partly drawn) 97

Query: residual activity; subject: CCn1c(-c2nonc2N)nc2cncc(CNC3CCNCC3)c21 115

Query: residual activity; subject: Cc1cc(NC(=O)c2cccc(NC(=O)/C=C/CN(C)C)c2)ccc1Nc1nccc(-c2cccnc2)n1 80

---

molecular target: AURKC (human); experiment: radiometric filter-binding kinase assay; conditions: compound 1.0 µM
This listing pairs molecules with measured residual activity.
I'd appreciate it if you included the unit after the number.

Oc1ccc(/C=C/c2cc(O)cc(O)c2)cc1 : 75%

Query: residual activity; subject: Cc1cccc(Nc2nn(C)c3ncnc(N)c23)c1 92%

Query: residual activity; subject: Cn1nc(Nc2ccc(F)cc2)c2c(N)ncnc21 125%

Query: residual activity; subject: COc1ccc2c(c1)c1c3c(c4c5ccccc5n(C)c4c1n2CC(O)CN(C)C)C(=O)NC3=O (centres undefined) 13%

---

biological target: MAPK10 (human) (UniProt P53779); assay: radiometric filter-binding kinase assay; settings: compound 10.0 µM
Sequence (P53779 whole entry, looked up): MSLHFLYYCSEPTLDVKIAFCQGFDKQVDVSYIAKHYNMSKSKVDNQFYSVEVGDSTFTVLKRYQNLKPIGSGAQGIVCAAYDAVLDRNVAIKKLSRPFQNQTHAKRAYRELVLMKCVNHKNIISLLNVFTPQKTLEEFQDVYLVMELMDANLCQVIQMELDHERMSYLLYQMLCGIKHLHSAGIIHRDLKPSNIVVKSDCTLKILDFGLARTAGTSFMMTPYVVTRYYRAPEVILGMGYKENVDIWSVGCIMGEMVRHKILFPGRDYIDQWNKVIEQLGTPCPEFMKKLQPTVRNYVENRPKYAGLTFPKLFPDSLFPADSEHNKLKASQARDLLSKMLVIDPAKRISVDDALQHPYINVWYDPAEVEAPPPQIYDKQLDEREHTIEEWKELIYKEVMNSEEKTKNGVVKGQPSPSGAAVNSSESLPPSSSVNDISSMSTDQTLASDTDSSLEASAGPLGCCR
This listing pairs compounds with measured residual activity.

Query: residual activity; subject: Oc1ccc(/C=C/c2cc(O)cc(O)c2)cc1 87%

Query: residual activity; subject: O=C(N[C@@H](COc1ccc2[nH]c(=O)[nH]c2c1)c1ccccc1)c1cccn(Cc2ccc(F)c(F)c2)c1=O 101%

Query: residual activity; subject: NC(=O)c1ccc(-c2ccc(Oc3cncc4sc(-c5nn[nH]n5)cc34)cc2)cc1 72%

Query: residual activity; subject: c1ccc2c(-c3cnn4cc(-c5ccc(N6CCNCC6)cc5)cnc34)ccnc2c1 94%

Query: residual activity; subject: O=C(Nc1ccccc1-c1cn2c(CN3CCNCC3)csc2n1)c1cnc2ccccc2n1 89%

Query: residual activity; subject: C=CC(=O)N1CCC[C@@H](n2nc(-c3ccc(Oc4ccccc4)cc3)c3c(N)ncnc32)C1 86%

Query: residual activity; subject: NCC(=O)Nc1ccc(-n2nc(C(F)(F)F)cc2-c2ccc3c(ccc4ccccc43)c2)cc1 86%

Query: residual activity; subject: Nc1cccc2c1CN(C1CCC(=O)NC1=O)C2=O (stereo not given) 95%

Query: residual activity; subject: NC(=O)c1c(NC(=O)C2CC2)sc2c1CCCC2 84%

Query: residual activity; subject: O=C(NOC[C@H](O)CO)c1ccc(F)c(F)c1Nc1ccc(I)cc1Cl 85%

Query: residual activity; subject: CCCC(CCC)C(=O)O 85%
